Taken from ChEMBL document CHEMBL1201862.

Form: system (HCT-15), quantity (log10 GI50), values below.
Scale: log10; quantity: GI50; unit before log: µM

Some solved cases for reference:
# compound, property_name, recorded_number
records = [
    ("NCCCCNCCCN1CC1", "log10 GI50", 0.69),
    ("COc1ccc(CNc2nc(NCc3ccc(OC)c(OC)c3)nc(NC3CCCCC3)n2)cc1", "log10 GI50", -0.14),
    ("CC1CC(C)CC(C)C(O)/C(C#N)=C/C=C/CC(C2CCCC2C(=O)O)OC(=O)CC(O)C(C)C1 (centres undefined)", "log10 GI50", -1.88),
    ("C[C@]12CC[C@@H]3c4cc(I)c(O)cc4CC[C@H]3[C@@H]1CC[C@@H]2O", "log10 GI50", 0.39),
    ("Cc1cn([C@@H]2O[C@H](CO[Si](C)(C)C(C)(C)C)[C@]3(O[C@H]3C(=O)NO)[C@H]2O[Si](C)(C)C(C)(C)C)c(=O)[nH]c1=O", "log10 GI50", 0.27),
    ("O=S1(=O)c2ccccc2N=C(c2ccccc2Cl)CC1c1ccc(F)cc1 (centres undefined)", "log10 GI50", 1.26),
]

Turning now to a further compound:
Form: item O=CN1CCN(C(=O)c2ccco2)C1=S ; test system HCT-15; log10 GI50: 0.89
